Tested on: MDA-MB-468 breast
Assay: NCI-60 one-dose screen, 48 h (100 = growth as untreated, 0 = no growth, -100 = all killed)
Conditions: 10 µM unless noted
This is part of a sample that, as a whole, favours compounds with a hit. Of some 83,000 tested, about 20% had one in any assay.
For each of the molecules below, state its growth.
Response body: numeric value in %, unit text excluded.

[ask] Would you kindly share the measured growth for CC(=O)Nc1cccc(NC(C)=O)n1 ?
[reply] 99.3

[ask] Look at this molecule and give its reported growth. COc1cc2cc(Oc3ccc(NC(=O)c4cc(C(F)(F)F)cc(C(F)(F)F)c4)cc3)c(C)nc2cc1OC
[reply] 22.8

[ask] Please look up its growth: C=C1CC2(OC1=O)C(=O)N(CCCN1C(=O)C3(CC(=C)C(=O)O3)c3ccccc31)c1ccccc12 (stereo not given)
[reply] -34

[ask] So what's the measured growth for this one? COc1ccc(-c2cc(-c3ccccc3)nc(N3CCN(CCNc4ccnc5cc(Cl)ccc45)CC3)n2)cc1
[reply] -54.7

[ask] Need growth, item Clc1ccc2c(NCCCn3cnc4c(N5CCCC5)nc(Cl)nc43)ccnc2c1
[reply] 107

[ask] Quick one: growth for CC/C(=C(\c1ccccc1)c1ccc(OCCN(C)C)cc1)c1ccccc1 ?
[reply] -13.3

[ask] Bench note: what growth did NS(=O)(=O)c1ccc(Nc2nc(SCc3ccccc3)nc3ccccc23)cc1 show?
[reply] 65.4

[ask] Entry under review: Cc1cc(Br)nnc1Br . Reported growth?
[reply] 101

[ask] Field request: growth | item: COc1ccc(/C=C2\SC(=Nc3cc(C)[nH]n3)NC2=O)cc1
[reply] 82.6

[ask] Fill in: growth of Cc1ccc(/C(N)=N/C(N)=N/c2nc3ccccc3s2)cc1 is ___
[reply] 88.8

###

System: MDA-MB-468 breast
Experiment: NCI-60 one-dose screen, 48 h (100 = growth as untreated, 0 = no growth, -100 = all killed)
Details: 10 µM unless noted
This is part of a sample that, as a whole, favours compounds with a hit. Of some 83,000 tested, about 20% had one in any assay. The source made the active and inactive calls. The calls were made as follows: active = growth percent below 10; inactive = the rest.
Kindly state growth for each of the entries shown.

[ask] Which growth is reported with MDA-MB-468 breast for this entry: C=C(C)[C@@H]1CC[C@]2(C(=O)N3CCN(C)CC3)CC[C@]3(C)[C@H](CC[C@@H]4[C@@]5(C)C/C(=C/c6ccco6)C(=O)C(C)(C)[C@@H]5CC[C@]43C)[C@@H]12 ?
[reply] 64.6% (inactive)

[ask] Provide value of growth for this record tested with MDA-MB-468 breast: C=CCn1c(SCC(=O)Nc2ccc(/C(C)=N\O)cc2)nnc1-c1cc(-c2ccc(Cl)cc2)nc2ccccc12
[reply] 42.7% (inactive)

[ask] Kindly state the measured growth obtained for CCc1ccc2c(c1)N(CCO)C1=C(C(=O)OC1)C2c1cccc(Br)c1 (centres undefined) with MDA-MB-468 breast.
[reply] 25.8% (inactive)

[ask] Entry O=c1[nH]c(-c2cn(-c3ccc(Cl)cc3)nn2)nc2ccccc12 , system MDA-MB-468 breast: what growth was measured?
[reply] 77.1% (inactive)

[ask] Report growth for NS(=O)(=O)Oc1ccc2nc(Nc3ccc(F)c(F)c3)ccc2c1 tested on MDA-MB-468 breast.
[reply] 96.9% (inactive)

[ask] Please provide the recorded growth for COc1cc(-c2nn(-c3ccccc3)cc2-c2ccnc(NCCNS(=O)(=O)c3ccc(Cl)cc3)n2)ccc1Cl , tested on MDA-MB-468 breast.
[reply] 31.2% (inactive)

[ask] Write down the reported growth of COc1ccc(/C(=C\c2cc(OC)c(OC)c(OC)c2)C(=O)Nc2nc3ccc(Cl)cc3s2)cc1 , test system: MDA-MB-468 breast.
[reply] 96.4% (inactive)

[ask] Query for MDA-MB-468 breast: what growth does the record show for COc1ccc(/C=C2\COc3ccc(-c4ccccc4)cc3C2=O)cc1O ?
[reply] 14.6% (inactive)

[ask] Notebook: pull reported growth for MDA-MB-468 breast, entry Nc1nc(NC2CC2)cc(-c2cccc(Cl)c2Cl)n1
[reply] 30.8% (inactive)
